Test system: Candida albicans
Assay: Antimicrobial activity against Candida albicans ATCC2091 assessed as diameter of growth inhibition zone at 1 mg/ml after 48 hr by agar cup diffusion method
Assay type: functional
Settings: ATCC2091, 48 h, read-out: IZ
METRIC_NAME: zone of inhibition at 1000 µg/mL (mm)
One number for each entry, in mm.

{"COMPOUND_SMILES": "Cc1c(C(N)=O)sc2nc(C)n(/N=c3\\scc(-c4ccccc4)n3Cc3ccccc3)c(=O)c12", "EXPERIMENTAL_SYSTEM": "Candida albicans", "METRIC_NAME": "zone of inhibition at 1000 µg/mL", "RESULT_VALUE": 17}
{"COMPOUND_SMILES": "Clc1ccccc1C(c1ccccc1)(c1ccccc1)n1ccnc1", "EXPERIMENTAL_SYSTEM": "Candida albicans", "METRIC_NAME": "zone of inhibition at 1000 µg/mL", "RESULT_VALUE": 28}
{"COMPOUND_SMILES": "Cc1c(C(N)=O)sc2ncn(C3CCCCC3)c(=O)c12", "EXPERIMENTAL_SYSTEM": "Candida albicans", "METRIC_NAME": "zone of inhibition at 1000 µg/mL", "RESULT_VALUE": 15}
{"COMPOUND_SMILES": "CCSc1nc2sc(C(N)=O)c(C)c2c(=O)n1-c1ccccc1", "EXPERIMENTAL_SYSTEM": "Candida albicans", "METRIC_NAME": "zone of inhibition at 1000 µg/mL", "RESULT_VALUE": 15}
{"COMPOUND_SMILES": "CCCn1cnc2sc(C(N)=O)c(C)c2c1=O", "EXPERIMENTAL_SYSTEM": "Candida albicans", "METRIC_NAME": "zone of inhibition at 1000 µg/mL", "RESULT_VALUE": 15}

For every listed record, write down its zone of inhibition at 1000 µg/mL.
1. Cc1c(C(N)=O)sc2nc(C)n(/N=C3\SCC(=O)N3c3ccccc3)c(=O)c12
2. CC(=O)CSc1nc2sc(C(N)=O)c(C)c2c(=O)n1-c1ccccc1
3. Cc1c(C(N)=O)sc2ncn(-c3ccccn3)c(=O)c12
4. Cc1c(C(N)=O)sc2nc(C)n(NC(=S)NCc3ccccc3)c(=O)c12
5. Cc1c(C(N)=O)sc2nc(SCC(=O)Nc3ccccc3)n(-c3ccccc3)c(=O)c12

[A]
1: 16; 2: 15; 3: 15; 4: 15; 5: 15
